In this section we review reported efflux ratio at 120 min, 1 μM values for a set of molecules.
# TESTED_TARGET: MDR1 (P-gp) (Homo sapiens, UniProt P08183)
# Construct: host or cells: MDCK cells
# Sequence (P08183 whole entry): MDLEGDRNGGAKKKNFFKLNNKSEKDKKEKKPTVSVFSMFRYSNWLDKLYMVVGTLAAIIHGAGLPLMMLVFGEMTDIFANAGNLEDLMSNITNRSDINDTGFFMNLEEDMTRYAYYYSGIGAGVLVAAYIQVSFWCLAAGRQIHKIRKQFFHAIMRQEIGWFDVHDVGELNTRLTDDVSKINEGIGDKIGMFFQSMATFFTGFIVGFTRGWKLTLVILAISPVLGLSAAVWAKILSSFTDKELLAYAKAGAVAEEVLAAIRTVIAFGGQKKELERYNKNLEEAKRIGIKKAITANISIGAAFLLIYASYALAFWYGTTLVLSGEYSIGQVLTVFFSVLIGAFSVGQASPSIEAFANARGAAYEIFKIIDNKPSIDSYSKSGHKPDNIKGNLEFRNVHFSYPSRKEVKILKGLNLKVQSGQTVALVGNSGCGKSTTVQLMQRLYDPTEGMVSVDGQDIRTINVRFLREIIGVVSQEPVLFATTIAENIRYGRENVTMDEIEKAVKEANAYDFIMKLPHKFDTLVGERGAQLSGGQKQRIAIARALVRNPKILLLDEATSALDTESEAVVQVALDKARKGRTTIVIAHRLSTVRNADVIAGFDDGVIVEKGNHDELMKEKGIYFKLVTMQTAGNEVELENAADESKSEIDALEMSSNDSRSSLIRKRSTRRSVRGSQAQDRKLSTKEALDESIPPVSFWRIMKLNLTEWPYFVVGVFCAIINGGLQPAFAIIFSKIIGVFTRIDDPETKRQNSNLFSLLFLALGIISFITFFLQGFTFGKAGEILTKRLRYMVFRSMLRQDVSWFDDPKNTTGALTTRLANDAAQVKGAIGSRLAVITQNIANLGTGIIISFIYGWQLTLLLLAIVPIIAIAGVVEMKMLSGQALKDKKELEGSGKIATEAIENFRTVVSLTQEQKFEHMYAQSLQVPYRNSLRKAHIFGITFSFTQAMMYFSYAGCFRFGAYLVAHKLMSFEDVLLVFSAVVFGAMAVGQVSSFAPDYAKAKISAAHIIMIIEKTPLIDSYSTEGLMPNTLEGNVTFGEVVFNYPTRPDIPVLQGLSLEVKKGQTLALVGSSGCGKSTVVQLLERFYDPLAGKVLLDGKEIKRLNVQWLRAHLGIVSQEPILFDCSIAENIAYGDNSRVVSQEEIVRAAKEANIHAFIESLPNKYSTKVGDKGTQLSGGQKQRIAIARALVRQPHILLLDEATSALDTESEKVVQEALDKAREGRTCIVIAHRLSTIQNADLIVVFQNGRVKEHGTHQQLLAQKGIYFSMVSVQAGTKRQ
# PROCEDURE_DETAILS: MDR1-MDCK assay (efflux ratio)
# Format: in vitro ADME
# SETTINGS: human, MDCK-MDR1, 1 μM compound, 120 minutes incubation; read-out: MDR1-MDCK Efflux Ratio; (B-A/A-B)
REPORTED_METRIC: efflux ratio at 120 min, 1 μM

{"ENTRY_SMILES": "CC(C)Oc1cc2nn(C3CCOCC3)cc2cc1C(=O)Nc1ccn(C)n1", "REPORTED_METRIC": "efflux ratio at 120 min, 1 μM", "RECORDED_MEASUREMENT": 4.6}
{"ENTRY_SMILES": "COCCCn1cc2cc(C(=O)Nc3cnn4cccnc34)c(OC(C)C)cc2n1", "REPORTED_METRIC": "efflux ratio at 120 min, 1 μM", "RECORDED_MEASUREMENT": 1.1}
{"ENTRY_SMILES": "CO[C@H]1C[C@H](Oc2cc3nn(C4CCOCC4)cc3cc2C(=O)Nc2cccc(C(F)F)n2)C1.Cl", "REPORTED_METRIC": "efflux ratio at 120 min, 1 μM", "RECORDED_MEASUREMENT": 1.4}
{"ENTRY_SMILES": "CC(C)Oc1cc2nn(C3CCOCC3)cc2cc1C(=O)Nc1cnn2cccnc12", "REPORTED_METRIC": "efflux ratio at 120 min, 1 μM", "RECORDED_MEASUREMENT": 2.1}
{"ENTRY_SMILES": "CC(C)Oc1cc2nn(C3CCOCC3)cc2cc1C(=O)Nc1cccc2c1OCC2.Cl", "REPORTED_METRIC": "efflux ratio at 120 min, 1 μM", "RECORDED_MEASUREMENT": 0.7}
